Reported Relative late peak area (centered, scaled, averaged over 5, 10 and 15 min) by item:
Target: T1, IFF05588
T1 chain: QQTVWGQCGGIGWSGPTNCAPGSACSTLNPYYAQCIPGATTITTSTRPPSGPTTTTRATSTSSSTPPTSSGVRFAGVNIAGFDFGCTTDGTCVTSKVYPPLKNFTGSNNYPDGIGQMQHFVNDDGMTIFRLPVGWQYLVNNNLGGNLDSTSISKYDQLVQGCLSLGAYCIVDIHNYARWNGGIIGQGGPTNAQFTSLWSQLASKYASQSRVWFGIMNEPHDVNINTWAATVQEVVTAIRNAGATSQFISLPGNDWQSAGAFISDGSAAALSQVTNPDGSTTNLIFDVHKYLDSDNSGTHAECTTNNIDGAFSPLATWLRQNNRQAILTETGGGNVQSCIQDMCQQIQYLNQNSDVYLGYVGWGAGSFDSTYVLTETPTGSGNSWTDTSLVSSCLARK
Respond numerically, and do not add a unit to the figure.

Report Relative late peak area (centered, scaled, averaged over 5, 10 and 15 min) for IFF21354 (protein) RLDKPVIKPPFPNGGLGSLGPDLMSSLKVASHTTDDWDKNHLPRDCKSLAQNAGFSPLDVSAFNIHYDDCKSQPWVFCRHKDSPLSKKDMTELFGRMPVRMRQFIRHIIALPGQRSAGSSGDNIQMNGDVEITVFIHETGHSLDSHAFDPKLGAPFSNGKAWTDAYNKDSAVTDDYAQTSQQENFAQETVVSVYDKNVKGGIGKIQPNAQAIRNAYTTLEKYIGNIIIPGGVCTHRLENSPSVPKADSARTRLVPKSEPVGEGLTRIEPIAMGPITPASY please.
1.34

# ---- query protein ----
Please report the recorded Relative late peak area (centered, scaled, averaged over 5, 10 and 15 min) for IFF21337 (protein) NLNKPVITPNFPGNGLASLGQGLMDHLAPTHSTWDDWGAGWIPSDCKSMVQGAGFSPNDIIPFNIHYDDCAQSWTFCRHKNSPLSEVQILDIFGRLPVRMRQFVRHLVFVPGNKSAGSNGDNVLMVGDVDVTVFAHEIGHSLDSHAFDPSYGVPFSTGNVWVSNYNLDSAVPDPYAQSSQQENFAQETVVSLYDKAVPGGIGTIQPNWQAIFHQYATLEGYIGDVIIPGGTCTHRLTDSAPVTMSGSKKSRRALGPKPKVSLSPKVKEIEAIPMESSITMTSFDEHGKPNGTYVVHL .
0.9

Entry source: patent US20250051821
